- Test system: Rattus norvegicus
- TEST_DESCRIPTION: Anticonvulsant activity in po dosed rat assessed as protection against subcutaneous metrazole-induced seizure
- Assay type: functional
// reported ED50 per item
API: value field is a number in mg/kg; no unit string.

As a guide, the following entries are already answered.
| QUERY_SMILES | UNIT_ABBREV | ED50 |
| --- | --- | --- |
| C#Cc1ccc2c(c1)C(c1ccccc1F)=NCc1c(C(=O)OCC)ncn1-2 | mg/kg | 23.7 |
| C#Cc1ccc2c(c1)C(c1ccccc1Cl)=NCc1nnc(C)n1-2 | mg/kg | 1.58 |
| O=C1CN=C(c2ccccc2Cl)c2cc([N+](=O)[O-])ccc2N1 | mg/kg | 0.61 |

Read the next record carefully.
input: ED50 for `C#Cc1ccc2c(c1)C(c1ccccn1)=NCc1c(C(=O)OCC)ncn1-2` ?
output: 98.5

###

- Test system: Mus musculus
- TEST_DESCRIPTION: Anticonvulsant activity in ip dosed mouse assessed as protection against maximal electroshock-induced seizure
- Assay type: functional
The compounds listed here are annotated with their ED50.
State the answer as a number, implicitly in mg/kg.

| COMPOUND | STUDY_TARGET | RESULT |
| --- | --- | --- |
| NC(=O)N1c2ccccc2C=Cc2ccccc21 [CARBAMAZEPINE] | Mus musculus | 7.81 |
| O=C1CN=C(c2ccccc2Cl)c2cc([N+](=O)[O-])ccc2N1 | Mus musculus | 25.6 |

input: Quick check: ED50 on Mus musculus, item `O=C1NC(=O)C(c2ccccc2)(c2ccccc2)N1` ?
output: 5.64

###

- TEST_DESCRIPTION: Toxicity in po dosed rat assessed as minimal muscular or neurological impairment by rotarod paradigm test
- Format: organism-based
- CONDITION_DETAILS: in vivo
Let's look at some molecules and their measured TD50.

Example results:
| QUERY_SMILES | TD50 |
| --- | --- |
| C#Cc1ccc2c(c1)C(c1ccccc1F)=NCc1c(C(=O)OCC)ncn1-2 | > 500 mg/kg |
| O=C1CN=C(c2ccccc2Cl)c2cc([N+](=O)[O-])ccc2N1 | 2.38 mg/kg |
| C#Cc1ccc2c(c1)C(c1ccccn1)=NCc1c(C(=O)OCC)ncn1-2 | > 500 mg/kg |

Now consider the entry below.
input: Name the recorded TD50 for `O=C1NC(=O)C(c2ccccc2)(c2ccccc2)N1` .
output: > 1000 mg/kg

###

TD50 values by entry
- TEST_DESCRIPTION: Toxicity in ip dosed mouse assessed as minimal muscular or neurological impairment by rotarod paradigm test
- Assay type: organism-based
- CONDITION_DETAILS: in vivo

Some compounds with known TD50 results, for comparison:
| COMPOUND | RESULT |
| --- | --- |
| C#Cc1ccc2c(c1)C(c1ccccc1F)=NCc1c(C(=O)OCC)ncn1-2 | > 400 mg/kg |
| C#Cc1ccc2c(c1)C(c1ccccn1)=NCc1c(C(=O)OCC)ncn1-2 | > 500 mg/kg |

input: So what does the record say about TD50 for O=C1CN=C(c2ccccc2Cl)c2cc([N+](=O)[O-])ccc2N1 [CLONAZEPAM] ?
output: 0.26 mg/kg

###

- TEST_DESCRIPTION: Therapeutic index, ratio of TD50 for po dosed rat to ED50 for protection against subcutaneous metrazole-induced seizure in po dosed rat
- Assay type: organism-based
- CONDITION_DETAILS: in vivo, read-out: Ratio TD50/ED50
Listing: selectivity ratio of selected compounds

Some compounds with known selectivity ratio results, for comparison:
| QUERY_SMILES | selectivity ratio |
| --- | --- |
| C#Cc1ccc2c(c1)C(c1ccccc1F)=NCc1c(C(=O)OCC)ncn1-2 | > 21.1 |
| C#Cc1ccc2c(c1)C(c1ccccc1Cl)=NCc1nnc(C)n1-2 | > 105 |

Could you now look at the following compound, please?
input: Any idea what selectivity ratio was measured for `C#Cc1ccc2c(c1)C(c1ccccn1)=NCc1c(C(=O)OCC)ncn1-2` ?
output: > 5

###

Some compounds, each annotated with its measured ED50.
- System: Mus musculus
- TEST_DESCRIPTION: Anticonvulsant activity in ip dosed mouse assessed as protection against maximal electroshock-induced seizure
- Assay type: functional

Before answering, review these 2 worked examples.
| QUERY_SMILES | STUDY_TARGET | RESULT |
| --- | --- | --- |
| C#Cc1ccc2c(c1)C(c1ccccn1)=NCc1c(C(=O)OCC)ncn1-2 | Mus musculus | > 300 mg/kg |
| C#Cc1ccc2c(c1)C(c1ccccc1Cl)=NCc1nnc(C)n1-2 | Mus musculus | > 6 mg/kg |

Please look at the following compound next.
input: # lookup: ED50 of `C#Cc1ccc2c(c1)C(c1ccccc1F)=NCc1c(C(=O)OCC)ncn1-2`
output: > 200 mg/kg
